Where these numbers come from: patent US7557066B2

Test system: soybeans (Glycine max.)
assay_info: Crop plant compatibility (greenhouse, visual scoring)
Assay type: in vivo
experimental_context: pre-emergence or post-emergence method, various dosages; visual scoring four to five weeks after application
assay_metric: damage to crops of leguminous plants, such as soybeans

Some solved cases for reference:
{"columns": ["smi", "observed_measurement"],
 "data": [
  ["COc1cc(Cl)nc(NC(=O)[N-]S(=O)(=O)c2ncccc2C2=NOCCO2)n1.[Na+]", "did not damage"],
  ["CCOc1cc(OCC)nc(NC(=O)[N-]S(=O)(=O)c2ncccc2C2=NOCCO2)n1.[Na+]", "did not damage"],
  ["COc1nc(NC(=O)[N-]S(=O)(=O)c2ncccc2C2=NOCCO2)nc(N(C)C)n1.[Na+]", "did not damage"],
  ["COc1cc(N(C)C)nc(NC(=O)NS(=O)(=O)c2ncccc2C2=NOCCO2)n1", "did not damage"],
  ["COc1nc(NC(=O)[N-]S(=O)(=O)c2ncccc2C2=NOCCO2)nc(OC)n1.[Na+]", "did not damage"]
]}

stdin: I am curious: what damage to crops of leguminous plants, such as soybeans value has been reported for `O=C(Nc1nc(Cl)cc(OCC(F)(F)F)n1)NS(=O)(=O)c1ncccc1C1=NOCCO1` ?
stdout: did not damage

stdin: Repeat with `Cc1cc(Cl)nc(NC(=O)[N-]S(=O)(=O)c2ncccc2C2=NOCCO2)n1.[Na+]`
stdout: did not damage

stdin: Repeat with `COc1cc(OC)nc(NC(=O)[N-]S(=O)(=O)c2ncccc2C2=NOCCO2)n1.[Na+]`
stdout: did not damage
